Biological target: Fibroblast growth factor 2 (Homo sapiens) (UniProt P09038)
Sequence (P09038 whole entry, looked up): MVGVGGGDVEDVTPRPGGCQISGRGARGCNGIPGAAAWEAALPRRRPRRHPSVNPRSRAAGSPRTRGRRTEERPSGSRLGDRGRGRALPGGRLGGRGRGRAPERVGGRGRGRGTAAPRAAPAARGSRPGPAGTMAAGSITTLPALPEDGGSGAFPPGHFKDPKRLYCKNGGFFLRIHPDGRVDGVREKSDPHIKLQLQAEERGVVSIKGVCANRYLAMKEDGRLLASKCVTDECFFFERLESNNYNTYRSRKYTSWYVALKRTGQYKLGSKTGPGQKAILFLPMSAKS
Test: basic fibroblast growth factor binding to printed compounds – biochemical, small-molecule microarray, 635/667 nm fluorescence, primary screen (AID 1133)
Details: FGF2, fluorescence 635/667, higher = more signal
The reader will find reported composite z-score values listed item by item below.
readout-label: composite z-score

compound	data-value
CC1(C)C(=O)C(c2ccccc2)=C2CN3C(=O)N(CCc4ccccc4)C(=O)C3(Cc3ccccc3)C=C21 (configuration not stated)	-0.492
[N-]=[N+]=NCc1ccccc1[C@@H]1OC(c2ccc(OCCCO)cc2)=N[C@]1(Cc1ccccc1N=[N+]=[N-])C(N)=O	0.853
[N-]=[N+]=NCc1ccccc1[C@@H]1OC(c2ccc(OCCCO)cc2)=N[C@]1(Cc1ccccc1)C(=O)O	0.0221
O=C1OCCC=C[C@H]2OC34C=CCN(c5ccc6ccccc6c5)C(=O)[C@H]3N(CCCCCCO)C(=O)[C@@H]4C12 (some centres not stated)	-0.97
CN(C)CCCC[C@@H]1NC(=O)[C@H]2C[C@@H](C(=O)NCCCCCNC(=O)CS)[C@@H](c3ccc(O)cc3)N2C1=O	0.421
C=CCNC(=O)[C@H]1[C@@H]2C(=O)O[C@@H](c3ccccc3)[C@@H](c3ccccc3)N2[C@@H](c2ccc(OCCO)cc2)[C@]12C(=O)N(C(=O)OCCOC)c1ccc(C#CC3(O)CCCCCC3)cc12	1.58
C=CCC(OC(C)=O)[C@@H]1[C@@H](N(Cc2ccc(-c3ccccc3)cc2)C(=O)c2ccc(C)cc2)c2cc(OCCCO)ccc2N1C(=O)c1ccc2ccccc2n1 (some centres not stated)	-0.006
